METRIC NAME: glass transition temperature (°C)

COMPOUND	QUANTITATIVE READOUT
*c1cccc(OCCCCCCCCOc2cccc(N3C(=O)c4ccc(-c5cccc6c5C(=O)N(*)C6=O)cc4C3=O)c2)c1 (repeat unit)	142.00
*CC(*)OCCCCCCCC (repeat unit)	-79.83

P. *Oc1ccc(CC(NC(=O)CCc2ccc(OC(=O)CC(C)CCC(*)=O)cc2)C(=O)OCCCC)cc1 (repeat unit)
Q. *O[Si](C)(C)c1ccc([Si](*)(C)C)c2ccccc12 (repeat unit)
Name the one with the greater glass transition temperature value, either P or Q as given. Selection: enter the item's label.
Q

Source of measurements: the PolyMetriX glass transition set
